Attribution: patent US20210388087A1

Biological target: T1, Human CD137 ECD (human)
T1 construct: also called human CD137 extracellular domain; recombinant human CD137
T1 sequence (chain, as listed by the source limits assumed): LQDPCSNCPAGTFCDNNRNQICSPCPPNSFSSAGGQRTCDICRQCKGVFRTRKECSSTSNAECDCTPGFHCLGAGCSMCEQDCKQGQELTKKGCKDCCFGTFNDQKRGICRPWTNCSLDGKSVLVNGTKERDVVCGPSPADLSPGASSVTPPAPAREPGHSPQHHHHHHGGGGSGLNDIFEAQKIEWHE
Experiment: SPR Biacore T200, 37 C, Ab captured on anti-human Fc, antigen as analyte;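 also: recombinant human CD137 flowed over antibodies held by amine-coupled anti-human Fc on a CM4 chip, run in ACES pH 7.4 buffer with 150 mM NaCl and 0.05% Tween 20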
Reported koff values follow for various binders
Value Kind: koff (s⁻¹)

INSERT INTO measurements (binder, value_kind, recorded_measurement) VALUES
  ('H1610L0939 (antibody, V domains shown, Dual-Ig, IgG; also called H1610L939; dBBDu183H1610/dBBDu072L0939) VH: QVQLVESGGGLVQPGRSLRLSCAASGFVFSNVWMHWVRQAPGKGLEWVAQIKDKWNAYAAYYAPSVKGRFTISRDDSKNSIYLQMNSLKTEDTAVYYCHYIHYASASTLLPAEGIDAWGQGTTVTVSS VL: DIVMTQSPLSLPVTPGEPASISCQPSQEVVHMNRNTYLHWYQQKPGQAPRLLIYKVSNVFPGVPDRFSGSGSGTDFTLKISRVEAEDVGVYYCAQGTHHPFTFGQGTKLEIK', 'koff', 0.000801),
  ('H1651L0581 (antibody, V domains shown, Dual-Ig, IgG; also called dBBDu183H1651/dBBDu072L0581) VH: QVQLVESGGGLVQPGRSLRLSCAASGFVFSNVWFHWVRQAPGKGLEWVAQIKDKYNAYADYYAPSVEGRFTISRDDSKNSIYLQMNSLKTEDTAVYYCHYVHYASASTLLPAEGVDAWGQGTTVTVSS VL: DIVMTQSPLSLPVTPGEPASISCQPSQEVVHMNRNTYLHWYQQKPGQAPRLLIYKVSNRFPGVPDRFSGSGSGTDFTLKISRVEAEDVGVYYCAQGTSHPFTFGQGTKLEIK', 'koff', 0.000603),
  ('H2591L0581 (antibody, V domains shown, Dual-Ig, IgG; also called H2591L581; dBBDu183H2591/dBBDu072L0581) VH: QVQLVESGGGLVQPGRSLRLSCAASGFKFSNVWFHWVRQAPGKGLEWVAQIKDYYNAYAGYYHPSVKGRFTISRDDSKNSIYLQMNSLKTEDTAVYYCHYVHYAAASTLLPAEGVDAWGQGTTVTVSS VL: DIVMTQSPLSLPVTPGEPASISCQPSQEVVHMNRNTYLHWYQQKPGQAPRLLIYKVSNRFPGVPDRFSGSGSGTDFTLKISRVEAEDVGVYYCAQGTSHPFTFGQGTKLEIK', 'koff', 0.000742),
  ('H1652L0943 (antibody, V domains shown, Dual-Ig, IgG; also called dBBDu183H1652/dBBDu072L0943) VH: QVQLVESGGGLVQPGRSLRLSCAASGFVFSNVWFHWVRQAPGKGLEWVAQIKDYYNAYADYYAPSVEGRFTISRDDSKNSIYLQMNSLKTEDTAVYYCHYVHYASASTLLPAEGVDAWGQGTTVTVSS VL: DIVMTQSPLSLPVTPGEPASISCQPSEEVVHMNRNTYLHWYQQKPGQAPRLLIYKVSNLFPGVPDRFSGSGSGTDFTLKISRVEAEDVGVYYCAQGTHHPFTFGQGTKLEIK', 'koff', 0.00047),
  ('H1647L0581 (antibody, V domains shown, Dual-Ig, IgG; also called dBBDu183H1647/dBBDu072L0581) VH: QVQLVESGGGLVQPGRSLRLSCAASGFKFSNTWFHWVRQAPGKGLEWVAQIKDYYNDYAAYYAPSVKGRFTISRDDSKNSIYLQMNSLKTEDTAVYYCHYVHYASASTLLPAEGVDAWGQGTTVTVSS VL: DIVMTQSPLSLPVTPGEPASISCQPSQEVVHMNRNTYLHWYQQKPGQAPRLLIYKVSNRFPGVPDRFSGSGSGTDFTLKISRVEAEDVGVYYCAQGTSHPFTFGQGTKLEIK', 'koff', 0.000647);
